Give measured IC50 for each item. Keep answers brief.
tested on: L. infantum promastigotes; test: Antileishmanial activity on promastigotes (luciferase assay); format: cell-based, L. infantum strain MHOM/MA/67/ITMAP-263; conditions: Leishmania infantum, 72 h, 24 °C, mean of three independent experiments
Numbers only, in µg/mL.

C[C@@H]1[C@H](O)[C@@H](C)/C=C/C=C/C=C/C=C/C=C/C=C/C=C/[C@H](O[C@@H]2O[C@H](C)[C@@H](O)[C@H](N)[C@@H]2O)C[C@@H]2O[C@](O)(C[C@@H](O)C[C@@H](O)[C@H](O)CC[C@@H](O)C[C@@H](O)CC(=O)O[C@H]1C)C[C@H](O)[C@H]2C(=O)O [Amphotericin B, reference compound] | 0.09

Now look at this one.
INPUT: Item C[C@H]1[C@H](C)CC[C@]2(C(=O)O)CC[C@]3(C)C(=CC[C@@H]4[C@@]5(C)C[C@@H](O)[C@H](O)C(C)(C)[C@@H]5CC[C@]43C)[C@H]12 [Corosolic acid (1), Corosolic acid (2α-hydroxyursolic acid)] has what recorded IC50?
OUTPUT: 18.4

----------
Give measured CC50 at 72 h for each item. Keep answers brief.
assay: Cytotoxicity evaluation, MTT assay; type: cell-based; conditions: mouse, J774A.1 macrophage cells, mean of three independent experiments, read-out: J774A1 CC50
Answers are plain numbers, in µg/mL.

Sample answers from the record:
C[C@H]1[C@H](C)CC[C@]2(C(=O)O)CC[C@]3(C)C(=CC[C@@H]4[C@@]5(C)C[C@@H](O)[C@H](O)C(C)(C)[C@@H]5CC[C@]43C)[C@H]12 [Corosolic acid (1), Corosolic acid (2α-hydroxyursolic acid)] | 5.77
COc1cccc2c1C(=O)c1c(O)c3c(c(O)c1C2=O)C[C@@](O)(C(=O)CO)C[C@@H]3O[C@H]1C[C@H](N)[C@H](O)[C@H](C)O1 [Doxorubicin, reference compound] | 0.04
CC1CCC2(C(=O)O)CCC3(C)C(=CCC4C5(C)CC(O)C(OC(=O)/C=C/c6ccc(O)cc6)C(C)(C)C5CCC43C)C2C1C (stereo not shown) | 12.9

Now look at this one.
INPUT: Item C[C@@H]1[C@H](O)[C@@H](C)/C=C/C=C/C=C/C=C/C=C/C=C/C=C/[C@H](O[C@@H]2O[C@H](C)[C@@H](O)[C@H](N)[C@@H]2O)C[C@@H]2O[C@](O)(C[C@@H](O)C[C@@H](O)[C@H](O)CC[C@@H](O)C[C@@H](O)CC(=O)O[C@H]1C)C[C@H](O)[C@H]2C(=O)O [Amphotericin B, reference compound] has what recorded CC50 at 72 h?
OUTPUT: 5.79

----------
tested on: L. infantum promastigotes; assay: Antileishmanial activity on promastigotes (luciferase assay); assay type: cell-based, L. infantum strain MHOM/MA/67/ITMAP-263; conditions: Leishmania infantum, 72 h, 24 °C, mean of three independent experiments
recorded endpoint: IC50

CC1(C)CCC2(C(=O)O)CCC3(C)C(=CCC4C5(C)CC(O)C(O)C(C)(C(=O)O)C5CCC43C)C2C1 (stereo not drawn) | > 50 mg/L

Look up IC50 for the entries below, preserving their order.
1. CC1CCC2(C(=O)O)CCC3(C)C(=CCC4C5(C)CC(O)C(OC(=O)/C=C/c6ccc(O)cc6)C(C)(C)C5CCC43C)C2C1C (stereo not drawn)
2. C/C1=C\CC(C)(C)/C=C/CC2(C)Oc3c(C=O)c(O)c(C=O)c(O)c3C(c3ccccc3)C2CC1 (stereo not drawn)

OUTPUT:
1. > 50 mg/L
2. > 50 mg/L

Measured values drawn from paper PMC6943623 for this set.
